- TESTED TARGET: His-tagged recombinant human Gal-3 (hGal-3) (Homo sapiens (Human), UniProt P17931)
- Sequence (P17931 whole entry): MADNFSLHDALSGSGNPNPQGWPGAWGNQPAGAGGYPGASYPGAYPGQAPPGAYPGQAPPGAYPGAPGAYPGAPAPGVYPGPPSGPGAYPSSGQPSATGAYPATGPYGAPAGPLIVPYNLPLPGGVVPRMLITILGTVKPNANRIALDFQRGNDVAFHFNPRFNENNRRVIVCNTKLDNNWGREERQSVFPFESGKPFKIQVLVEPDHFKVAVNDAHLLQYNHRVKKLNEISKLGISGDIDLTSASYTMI
- ASSAY TEXT: Gal-3 HTRF assay (His-tagged hGal-3 binding to B-ASF)
- MEASUREMENT CONTEXT: read-out: hGal3 IC50
Please go through the items and note down their pIC50.
Reminder that pIC50 means the negative base-10 logarithm of the concentration expressed in mol/L.

# pIC50 (compound: Cc1nc2ccc(-n3ncnc3[C@@H]3O[C@H](CO)[C@H](O)[C@H](n4cc(-c5cc(F)c(Cl)c(F)c5)nn4)[C@H]3O)cc2s1 ) is 7.40

Item: Cc1nc2ccc(-n3ncnc3[C@@H]3O[C@H](CO)[C@H](O)[C@H](n4cc(-c5ccc(NS(C)(=O)=O)c(F)c5)nn4)[C@H]3O)cc2s1 | pIC50: 5.67

response.value for Cc1nc([C@@H]2O[C@H](CO)[C@H](O)[C@H](n3cc(-c4ccc(Cl)c(F)c4)nn3)[C@H]2O)n(-c2ccc(Cl)c(Cl)c2)n1 (field: pIC50) = 6.96

pIC50 recorded for this compound, CC(=O)Nc1cc(-c2cn([C@H]3[C@@H](O)[C@@H](CO)O[C@@H](c4ncnn4-c4ccc5nc(C)sc5c4)[C@@H]3O)nn2)cc(F)c1F , is 7.15

Per the records, this compound ( Cc1nc2ccc(-n3ncnc3[C@@H]3O[C@H](CO)[C@H](O)[C@H](n4cc(-c5ccc(N)c(F)c5)nn4)[C@H]3O)cc2s1 ) has pIC50 equal to 6.36

---

- TESTED TARGET: His-tagged recombinant human Gal-3 (hGal-3) (Homo sapiens (Human), UniProt P17931)
- ASSAY TEXT: Gal-3 HTRF assay (His-tagged hGal-3 binding to B-ASF);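 also: compounds preincubated 30 min with hGal-3, then 1 h with B-ASF, detection via terbium anti-His antibody and streptavidin d2. Control with B-ASF counts as full signal, omitting B-ASF as background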
- MEASUREMENT CONTEXT: HTRF, hGal-3 15 nM, B-ASF 15 nM; read-out: hGal-3 IC50
MEASURED PARAMETER: IC50 (nM)
Answer format: numeric, nM implied, no suffix.

Considering CS(=O)(=O)Nc1cccc(-n2cnnc2[C@@H]2O[C@H](CO)[C@H](O)[C@H](n3cc(-c4cc(F)c(F)c(F)c4)nn3)[C@H]2O)c1 [Example 113] , its IC50 with His-tagged recombinant human Gal-3 (hGal-3) (Homo sapiens (Human), UniProt P17931) was recorded as 480

Item: COc1ccc([C@@H]2O[C@H](CO)[C@H](O)[C@H](n3cc(-c4cc(F)c(F)c(F)c4)nn3)[C@H]2O)cc1 [Example 292] | System: His-tagged recombinant human Gal-3 (hGal-3) (Homo sapiens (Human), UniProt P17931) | IC50: 10000

Lab note: molecule CSc1cccc(-n2cnnc2[C@@H]2O[C@H](CO)[C@H](O)[C@H](n3cc(-c4cc(F)c(F)c(F)c4)nn3)[C@H]2O)c1 [Example 146] tested on His-tagged recombinant human Gal-3 (hGal-3) (Homo sapiens (Human), UniProt P17931); recorded IC50 was 50

Form: item Cc1nc2ccc(-n3ncnc3[C@@H]3O[C@H](CO)[C@H](O)[C@H](n4cc(-c5cc(F)c(F)c(F)c5)nn4)[C@H]3O)cc2s1 [Example 45] ; test system His-tagged recombinant human Gal-3 (hGal-3) (Homo sapiens (Human), UniProt P17931); IC50: 60

# value of IC50, His-tagged recombinant human Gal-3 (hGal-3) (Homo sapiens (Human), UniProt P17931), item OCCn1cnnc1[C@@H]1O[C@H](CO)[C@H](O)[C@H](n2cc(-c3cc(F)c(F)c(F)c3)nn2)[C@H]1O [Example 170] = 2000

IC50 on His-tagged recombinant human Gal-3 (hGal-3) (Homo sapiens (Human), UniProt P17931) for Cc1nc2ccc(-n3ncnc3[C@@H]3O[C@H](CO)[C@H](O)[C@H](n4cc(-c5cc(F)c(Cl)cc5F)nn4)[C@H]3O)cc2s1 [Example 222] is 240

Form field, IC50 with His-tagged recombinant human Gal-3 (hGal-3) (Homo sapiens (Human), UniProt P17931), item COc1ccc(-c2cn([C@H]3[C@@H](O)[C@@H](CO)O[C@@H](c4ncnn4-c4ccc5nc(C)sc5c4)[C@@H]3O)nn2)cc1F [Example 223] : 200

Record for OC[C@H]1O[C@@H](c2nncn2-c2cc(Cl)cc(C(F)(F)F)c2)[C@H](O)[C@@H](n2cc(-c3cc(F)c(F)c(F)c3)nn2)[C@H]1O [Example 118] under target or system His-tagged recombinant human Gal-3 (hGal-3) (Homo sapiens (Human), UniProt P17931): IC50 reported as 160

Given the molecule COc1cccc(-n2cnnc2[C@@H]2O[C@H](CO)[C@H](O)[C@H](n3cc(-c4cc(F)c(F)c(F)c4)nn3)[C@H]2O)c1 [Example 152] and test system His-tagged recombinant human Gal-3 (hGal-3) (Homo sapiens (Human), UniProt P17931), the measured IC50 is 160

Readout IC50 for Cc1nc([C@@H]2O[C@H](CO)[C@H](O)[C@H](n3cc(-c4cc(F)c(F)c(F)c4)nn3)[C@H]2O)n(-c2cc(Cl)ccc2C#N)n1 [Example 64] , test system His-tagged recombinant human Gal-3 (hGal-3) (Homo sapiens (Human), UniProt P17931), was 90

Let me check: OC[C@H]1O[C@@H](c2ncnn2-c2c(F)cccc2F)[C@H](O)[C@@H](n2cc(-c3cc(F)c(F)c(F)c3)nn2)[C@H]1O [Example 29] , system His-tagged recombinant human Gal-3 (hGal-3) (Homo sapiens (Human), UniProt P17931), measured IC50 is 1560

Test item OC[C@H]1O[C@@H](c2ncnn2-c2cc(Cl)cc(Cl)c2)[C@H](O)[C@@H](n2cc(-c3cc(F)c(F)c(F)c3)nn2)[C@H]1O [Example 41] ; His-tagged recombinant human Gal-3 (hGal-3) (Homo sapiens (Human), UniProt P17931); reported IC50 was 110

Known value: His-tagged recombinant human Gal-3 (hGal-3) (Homo sapiens (Human), UniProt P17931) IC50 of the molecule OC[C@H]1O[C@@H](c2nncn2Cc2nccs2)[C@H](O)[C@@H](n2cc(-c3cc(F)c(F)c(F)c3)nn2)[C@H]1O [Example 158] equals 2150

Readout IC50 for Cc1nc([C@H]2C[C@@H](n3cc(-c4cc(F)c(F)c(F)c4)nn3)[C@@H](O)[C@@H](CO)O2)n(-c2ccc3nc(C)sc3c2)n1 [Example 187] , test system His-tagged recombinant human Gal-3 (hGal-3) (Homo sapiens (Human), UniProt P17931), was 110

Given the molecule Cn1cc2ccc(-n3cnnc3[C@@H]3O[C@H](CO)[C@H](O)[C@H](n4cc(-c5cc(F)c(F)c(F)c5)nn4)[C@H]3O)cc2n1 [Example 167] and test system His-tagged recombinant human Gal-3 (hGal-3) (Homo sapiens (Human), UniProt P17931), the measured IC50 is 300

Noted IC50 for Cc1ccc(-n2cnnc2[C@@H]2O[C@H](CO)[C@H](O)[C@H](n3cc(-c4cc(F)c(F)c(F)c4)nn3)[C@H]2O)cc1C [Example 77] , tested on His-tagged recombinant human Gal-3 (hGal-3) (Homo sapiens (Human), UniProt P17931): 140

# IC50 measured on His-tagged recombinant human Gal-3 (hGal-3) (Homo sapiens (Human), UniProt P17931) for item Cc1nc([C@@H]2O[C@H](CO)[C@H](O)[C@H](n3cc(-c4cc(F)c(F)c(F)c4)nn3)[C@H]2O)c(-c2cccc(Cl)c2)s1 [Example 284] = 2400

Simply: OC[C@H]1O[C@@H](c2ncnn2-c2cc(Cl)ccc2Cl)C[C@@H](n2cc(-c3cc(F)c(F)c(F)c3)nn2)[C@H]1O [Example 177] , His-tagged recombinant human Gal-3 (hGal-3) (Homo sapiens (Human), UniProt P17931), IC50 = 130

His-tagged recombinant human Gal-3 (hGal-3) (Homo sapiens (Human), UniProt P17931) IC50 of Cc1nc([C@H]2C[C@@H](n3cc(-c4cc(F)c(F)c(F)c4)nn3)[C@@H](O)[C@@H](CO)O2)n(-c2cc(Cl)ccc2C)n1 [Example 184] is 90

Measured IC50 for this entry Cc1nc2ccc(-n3c([C@@H]4O[C@H](CO)[C@H](O)[C@H](n5cc(-c6cc(F)c(F)c(F)c6)nn5)[C@H]4O)nnc3C(C)(C)O)cc2s1 [Example 276] on His-tagged recombinant human Gal-3 (hGal-3) (Homo sapiens (Human), UniProt P17931): 50

The molecule Cc1nc2ccc(-n3c(C)nnc3[C@@H]3O[C@H](CO)[C@H](O)[C@H](n4cc(-c5cc(F)c(F)c(F)c5)nn4)[C@H]3O)cc2s1 [Example 273] , when measured on His-tagged recombinant human Gal-3 (hGal-3) (Homo sapiens (Human), UniProt P17931), yielded IC50 of 40

Reading of IC50 for CO[C@@H]1[C@@H](n2cc(-c3ccc(Cl)c(F)c3)nn2)[C@@H](O)[C@@H](CO)O[C@H]1c1nc(C)nn1-c1cc(Cl)ccc1C [Example 258] with His-tagged recombinant human Gal-3 (hGal-3) (Homo sapiens (Human), UniProt P17931): 60

Noted IC50 for O=[N+]([O-])c1cccc(-n2ncnc2[C@@H]2O[C@H](CO)[C@H](O)[C@H](n3cc(-c4cc(F)c(F)c(F)c4)nn3)[C@H]2O)c1 [Example 35] , tested on His-tagged recombinant human Gal-3 (hGal-3) (Homo sapiens (Human), UniProt P17931): 700

Tested system His-tagged recombinant human Gal-3 (hGal-3) (Homo sapiens (Human), UniProt P17931); IC50 recorded for Cc1nc2ccc(-n3nc(C(=O)O)nc3[C@H]3C[C@@H](n4cc(-c5cccc(F)c5)nn4)[C@@H](O)[C@@H](CO)O3)cc2s1 [Example 269] was 330
